Measurement target: T1, hMPV PostF trimer (human metapneumovirus, strain B2)
T1 construct: also called MPV PostF (dPFv1)
Assay: BLI, mAb on anti-human Fc sensor
Could you please report measured Octet binding response for the items listed next?

These recorded examples may help you get a feel for the data.
• M7D5 (antibody, V domains shown, IgG) VH: QVQLVQSGAEVKKPGSSVKVSCKASGGTLSNYAISWVRQAPGQGLEWMGGIIPIFGTAMYAHNFQDRVTFTADESTNTVYMAVSRLTSDDTAVYYCAQDRTVTKYAHGLDVWGQGTTVTVSS VL: DIQMTQSPSSLSASVGDRITITCPASQSLLTYLNWYQQKPGKAPKLLIYSASELPSGVPSRFSGSGSGTEFTLTVTGLQPDDFATYYCQQSHTTPLTFGGGTKVEIKR = 0.0826 nm
• M2F01 (antibody, V domains shown, IgG) VH: QVQLVQSGAEVKKPGASVKVSCKASEDTFTNYYMHWVRQAPGQGLEWMGIINPSGGSTDYAQKFQGRVTMTRDTSTSTVYMELSSLRSEDTAMYYCARQGRTAACDYWGQGTLVTVSS VL: DIQMTQSPSSVSASVGDRVTITCRASQGIRSWLAWYQQKPGKAPKLLIYAASTLQSGVPSRFSGSGSGTDFTLTISSLQPEDFATYYCQQSNSFSLFTFGPGTRVDIK = -0.0326 nm

Required: Octet binding response, one value per binder below.
1. M2C10 (antibody, V domains shown, IgG) VH: QVQLVESGGGVVQPGRSLRLSCAASGFTFNNYAMHWVRQAPGKGLEWVALISDDGSKKYFADALKGRFTIFRDNSKNTLYLQMNSLRAEDTAVYYCARDPTPLGEYYFDYWGQGTLVTVSS VL: DIQMTQSPSSLSASVGDRVTITCRASQTISGYLNWYQQKPGKAPNLLIYTASSLESGVPSRFSGSGSETDFTLTISSLQPEDFATYYCQQSYRMPLTFGGGTRVSLK
2. M3E09 (antibody, V domains shown, IgG) VH: EVQLVESGGGVVRPGGSLRLSCAASGFRFDDYAMNWVRQAPGKGLEWVSGINWIGGTTKYADSVKGRFTISRDNTKNSLYLQMNSLRAEDTALYYCARGVGYYYYYMDVWGRGTTVTVSS VL: EIVLTQSPGTLSLSPGERATLSCRATQSVSSNYLAWYQQKPGQAPRLLIYDASSRAIGIPDRFSGSGSGTDFTLTISRLESEDFAVYYCQQYGSSPETFGQGTKVEIK
3. M4B05 (antibody, V domains shown, IgG) VH: QVQLVQSGPEVRKPGASVIISCKASGYSFISYYIHWVRQAPGQGLEWMGIINPSGGSTEYAQKYQGRLTITRDTSTTTVSMTLSSLRSDDTAVYFCAREQAVGAYDIWGQGTMVTVSS VL: EIVLTQSPGTLSLSPGERATLSCRAGQLINGNYLAWYQKKPGQAPSLLIYDVSRRAAGVPDRFTGSGSGTDFTLTISRLEPDDFAVYYCQHYGRSPSPTFGGGTKVEIK
4. M2B12 (antibody, V domains shown, IgG) VH: QVQLVESGGGVVQPGRSLRLSCEASGFTFSSSAMHWVRQAPGKGLEWVAIISYHGTNKDYSDSVRGRFTISRDNSKNTLYLQMNGLRGDDTAVYYCAKEAAVSGNFDSWGQGTMVTVSS VL: QLVLTQSPSASASLGASVKLTCTLISGPSNYAIAWHRQQPQKGPRYLMKVNSDGSHTKGDGIPDRFSGSSSGTERYLIISNLQSEDEADYYCQTWGSGIYVFGPGTKVTVL
5. M2E05 (antibody, V domains shown, IgG) VH: QVQLQESGPGLVKPSEILSLTCTVSRYSINSGYYWGWIRQPPGKGLEWVGCVSHAGVTYYNPSLESRVAVSLDTSKNQFSLKMTSVSAADTAMYYCAASSNWHNALEYWGQGTLVAVSS VL: QSVLTQPPSASGTPGQSVTISCSGSSSNMGINWVYWYQQLPGTAPKLLIYRNSQRPSGVPDRFSGSQSGTSASLAISGLRSEDEGHYYCAVWDDVVSGRLFGGGTKLTVL

## Output
1. -0.0261 nm
2. -0.0506 nm
3. -0.0395 nm
4. 0.445 nm
5. 0.0401 nm

For each listed entry, give its Octet binding response.
1. M2D03 (antibody, V domains shown, IgG) VH: QVQLQESGPGLVAPSQTLSLICDVSGDSVTSGAHSWSWIRQHPVKGLEWIAYINYSGRTNYNPSLQSRLVISVDRSKNQFSLRLSSVTAADTAVYYCARANVVGYSGYYFDYWGQGTLVAVSS VL: DIQMTQSPSSLSASVGDRVTITCRASQSVGAYLNWYQQKPGKAPKLLIFAGSSLQTGVPSRFSGRGSRTEFTLTISNLQREDFATYYCQQSLGDFLTFGGGTKVEIK
2. M3A07 (antibody, V domains shown, IgG) VH: QVQLVQSGAEVQKPGASVKVSCKASGYTFTRHAIHWVRQAPGQRLEWIGWVHGGNENTKYSQKLQGRVTITRDTSASTAYMELNSLRYEDTAVYYCATAMPGAFNMWGQGTVVTVSS VL: DIQMTQSPSTLSASVGDRVTITCRASQSISSWVAWYQQKPGKAPKLLIYKAFSLETGVPSRFSGSGSGTEFTLTISSLQPDDCATYYCQQYGSFSEFTFGQGTKLEIK
3. M2D02 (antibody, V domains shown, IgG) VH: QVQLVQSGAEVKKPGSSVKVSCKASGGTLTRYTISWVRQAPGQGLEWMGRIIPFLDIANYAPRFQGRVTMTADKSTSTAYMELSSLTSQDTAIYYCARDHSGNYFDLWGQGTLVTVSS VL: EIVMTQSPATLSVSPGERATLSCRASQSVTSNLAWYQRKPGQAPRLLIYGASTGATDIPGRFSGSGSGTEFTLTISGLQSEDFAVYYCQQYDHWPRTFGQGTKVEIK

## Output
1. 0.503 nm
2. -0.022 nm
3. 0.541 nm
